target: WIZ protein (HiBit-WIZ fusion protein) (Homo sapiens, UniProt O95785+Q96SW2); construct: expressed in transfected cells; experiment: Quantification of WIZ protein levels in HiBit tag fusion protein assay (WIZ HiBit assay in 293T cells); format: cell-based; conditions: WIZ HiBit assay in 293T cells; 10-point, 5-fold dose response, highest concentration 25 μM, about 18 hours; read-out: WIZ AC50
Sequence (O95785 whole entry, the tested form may be a part): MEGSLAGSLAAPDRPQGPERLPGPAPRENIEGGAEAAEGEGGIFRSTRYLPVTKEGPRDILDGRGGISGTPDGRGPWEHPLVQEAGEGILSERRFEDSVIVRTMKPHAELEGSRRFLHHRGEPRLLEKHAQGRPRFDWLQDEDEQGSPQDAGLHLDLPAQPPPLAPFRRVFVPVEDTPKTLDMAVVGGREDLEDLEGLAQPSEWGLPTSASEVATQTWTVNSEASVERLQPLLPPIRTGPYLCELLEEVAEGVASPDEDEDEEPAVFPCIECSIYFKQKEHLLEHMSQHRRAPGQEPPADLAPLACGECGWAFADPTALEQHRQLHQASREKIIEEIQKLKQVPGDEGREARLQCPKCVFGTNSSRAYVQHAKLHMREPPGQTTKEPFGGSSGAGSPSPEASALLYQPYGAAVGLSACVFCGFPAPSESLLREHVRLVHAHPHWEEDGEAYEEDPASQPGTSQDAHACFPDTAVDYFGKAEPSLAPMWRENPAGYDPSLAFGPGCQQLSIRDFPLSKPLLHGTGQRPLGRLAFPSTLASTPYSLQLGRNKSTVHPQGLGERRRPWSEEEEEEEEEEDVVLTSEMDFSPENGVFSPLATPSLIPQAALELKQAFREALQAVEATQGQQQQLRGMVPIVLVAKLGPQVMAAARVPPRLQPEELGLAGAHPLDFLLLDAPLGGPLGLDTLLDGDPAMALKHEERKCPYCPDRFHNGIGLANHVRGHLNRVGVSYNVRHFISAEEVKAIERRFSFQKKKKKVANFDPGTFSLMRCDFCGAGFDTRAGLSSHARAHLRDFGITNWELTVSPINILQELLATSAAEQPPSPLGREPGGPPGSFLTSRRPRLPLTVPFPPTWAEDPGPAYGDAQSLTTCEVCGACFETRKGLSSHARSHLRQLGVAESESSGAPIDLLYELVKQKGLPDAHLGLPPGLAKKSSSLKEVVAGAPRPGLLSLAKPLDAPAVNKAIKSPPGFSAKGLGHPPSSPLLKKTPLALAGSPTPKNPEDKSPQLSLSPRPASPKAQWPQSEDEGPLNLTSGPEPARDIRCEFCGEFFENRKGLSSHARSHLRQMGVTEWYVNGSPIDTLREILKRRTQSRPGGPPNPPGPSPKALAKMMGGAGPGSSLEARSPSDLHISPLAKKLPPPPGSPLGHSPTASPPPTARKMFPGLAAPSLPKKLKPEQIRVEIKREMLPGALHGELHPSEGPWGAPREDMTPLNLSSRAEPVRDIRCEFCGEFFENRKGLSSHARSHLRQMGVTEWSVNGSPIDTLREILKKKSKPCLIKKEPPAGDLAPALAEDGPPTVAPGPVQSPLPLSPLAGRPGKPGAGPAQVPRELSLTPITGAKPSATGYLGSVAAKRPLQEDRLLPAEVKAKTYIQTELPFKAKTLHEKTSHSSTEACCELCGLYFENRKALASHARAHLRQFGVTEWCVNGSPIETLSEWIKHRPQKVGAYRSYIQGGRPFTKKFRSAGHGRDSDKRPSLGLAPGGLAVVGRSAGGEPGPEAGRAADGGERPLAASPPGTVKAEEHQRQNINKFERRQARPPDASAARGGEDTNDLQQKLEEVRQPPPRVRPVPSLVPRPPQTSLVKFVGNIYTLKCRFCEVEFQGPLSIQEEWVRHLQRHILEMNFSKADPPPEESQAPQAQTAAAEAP
Sequence (Q96SW2 whole entry, the tested form may be a part): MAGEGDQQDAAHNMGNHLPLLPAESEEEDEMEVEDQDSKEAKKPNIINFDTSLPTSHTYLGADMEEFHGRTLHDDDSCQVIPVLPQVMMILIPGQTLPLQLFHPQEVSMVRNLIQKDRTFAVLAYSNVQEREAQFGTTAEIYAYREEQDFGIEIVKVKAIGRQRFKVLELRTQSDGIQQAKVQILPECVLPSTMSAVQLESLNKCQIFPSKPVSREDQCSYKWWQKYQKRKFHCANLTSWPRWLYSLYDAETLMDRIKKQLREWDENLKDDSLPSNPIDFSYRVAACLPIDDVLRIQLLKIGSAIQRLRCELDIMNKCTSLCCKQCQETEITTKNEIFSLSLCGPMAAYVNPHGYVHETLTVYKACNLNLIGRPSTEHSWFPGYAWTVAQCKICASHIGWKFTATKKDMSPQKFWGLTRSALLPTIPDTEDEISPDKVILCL
Sequence (Q16531 whole entry partner, the tested form may be a part): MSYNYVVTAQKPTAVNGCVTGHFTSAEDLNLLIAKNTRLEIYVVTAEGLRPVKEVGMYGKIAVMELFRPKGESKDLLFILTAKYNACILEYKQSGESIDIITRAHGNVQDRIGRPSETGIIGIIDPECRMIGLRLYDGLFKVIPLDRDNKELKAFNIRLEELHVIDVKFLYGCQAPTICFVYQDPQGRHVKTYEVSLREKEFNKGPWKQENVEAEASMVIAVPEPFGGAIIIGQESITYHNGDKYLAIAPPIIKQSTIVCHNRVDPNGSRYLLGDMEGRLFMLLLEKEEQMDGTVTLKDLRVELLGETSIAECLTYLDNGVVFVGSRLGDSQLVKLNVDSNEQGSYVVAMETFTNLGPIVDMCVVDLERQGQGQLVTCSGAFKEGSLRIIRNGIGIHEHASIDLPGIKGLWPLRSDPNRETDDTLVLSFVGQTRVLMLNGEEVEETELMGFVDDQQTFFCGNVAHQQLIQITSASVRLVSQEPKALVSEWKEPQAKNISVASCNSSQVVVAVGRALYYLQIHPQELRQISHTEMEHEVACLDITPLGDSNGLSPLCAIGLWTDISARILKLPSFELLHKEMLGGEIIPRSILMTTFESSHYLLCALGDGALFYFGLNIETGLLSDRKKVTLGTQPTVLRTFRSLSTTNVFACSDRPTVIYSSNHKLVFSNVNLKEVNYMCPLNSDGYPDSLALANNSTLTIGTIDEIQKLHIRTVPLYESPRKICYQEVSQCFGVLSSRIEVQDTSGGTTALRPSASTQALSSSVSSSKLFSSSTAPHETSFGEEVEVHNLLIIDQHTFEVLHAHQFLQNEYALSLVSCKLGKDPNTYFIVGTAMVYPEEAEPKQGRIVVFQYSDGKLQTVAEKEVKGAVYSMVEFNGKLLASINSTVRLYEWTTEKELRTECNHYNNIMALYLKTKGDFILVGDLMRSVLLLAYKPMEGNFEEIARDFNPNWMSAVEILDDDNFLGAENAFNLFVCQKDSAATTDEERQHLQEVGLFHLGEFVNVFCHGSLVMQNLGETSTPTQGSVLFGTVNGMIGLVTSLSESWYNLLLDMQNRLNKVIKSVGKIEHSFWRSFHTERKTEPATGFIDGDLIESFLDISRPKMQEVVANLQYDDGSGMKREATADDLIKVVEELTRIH
observation type: DC50 (nM)

Here's what some known entries look like.
compound | DC50, nM
C[C@H]1CN(Cc2ccn3ncc(N4CCC(=O)NC4=O)c3c2)CCN1CC1CCCCCC1 | 9
C[C@H]1C[C@H](Cc2ccn3ncc(N4CCC(=O)NC4=O)c3c2)CCN1S(C)(=O)=O | 18
O=C1CCN(c2cnn3ccc(CN4CCN(Cc5ccc(F)cc5)CC4)cc23)C(=O)N1 | 127
Cc1ccc(CN2CCC(Cc3ccn4ncc(N5CCC(=O)NC5=O)c4c3)CC2)cc1 | 157
CN1CCCC(Cc2ccn3ncc(N4CCC(=O)NC4=O)c3c2)CC1 (stereo not drawn) | 702
O=C1CCN(c2cnn3ccc(CN4CCN5CCCC[C@H]5C4)cc23)C(=O)N1 | 583

1. CC(C)N1CCN(Cc2ccn3ncc(N4CCC(=O)NC4=O)c3c2)CC1
2. CC(C)CS(=O)(=O)N1CCC(Cc2ccn3ncc(N4CCC(=O)NC4=O)c3c2)CC1
3. CC(C)C(=O)N1CC[C@@H](Cc2ccn3ncc(N4CCC(=O)NC4=O)c3c2)C[C@@H]1C
4. CC(C)CN1[C@H](C)CN(Cc2ccn3ncc(N4CCC(=O)NC4=O)c3c2)C[C@@H]1C
Exam item: list the entries in increasing order of DC50. In plain terms: list the labels in the order you were asked to.
3, 2, 4, 1
